Target: Caspase-8 (Homo sapiens, UniProt Q14790)
Sequence (Q14790 217-374 limits assumed): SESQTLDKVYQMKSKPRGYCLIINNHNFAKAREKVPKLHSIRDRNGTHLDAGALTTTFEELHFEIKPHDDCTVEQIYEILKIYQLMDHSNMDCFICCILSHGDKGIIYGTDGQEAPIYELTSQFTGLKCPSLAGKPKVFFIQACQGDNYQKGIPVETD
Sequence (Q14790 385-479 limits assumed): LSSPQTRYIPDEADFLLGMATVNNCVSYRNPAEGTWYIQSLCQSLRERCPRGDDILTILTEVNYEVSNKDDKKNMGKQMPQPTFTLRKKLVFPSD
Assay: Inhibition of caspase 8
resultType: IC50 (µM)
A number alone suffices; assume µM.

Request: Please give the documented IC50 of CC(C)[C@H](NC(=O)c1ccc2ccccc2c1)C(=O)N[C@@H](C)C(=O)N[C@H](CNCc1ccccc1O)CC(=O)O
Result: 100

----------
So I've got a bunch of compounds here, and I need their Ki values.
Molecular target: UniProtKB P29466
Sequence (P29466 120-297 limits assumed): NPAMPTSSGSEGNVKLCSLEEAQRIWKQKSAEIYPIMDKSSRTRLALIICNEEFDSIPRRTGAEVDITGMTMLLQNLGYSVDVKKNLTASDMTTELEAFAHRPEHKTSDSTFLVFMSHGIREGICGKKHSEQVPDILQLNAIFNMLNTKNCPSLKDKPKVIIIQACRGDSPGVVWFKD
Sequence (P29466 317-404 limits assumed): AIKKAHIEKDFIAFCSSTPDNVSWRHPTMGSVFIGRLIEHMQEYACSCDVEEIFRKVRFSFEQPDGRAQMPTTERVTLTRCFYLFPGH
Experiment: Inhibition of human recombinant caspase 1
Show the value, then the unit it is measured in.

Request: Note down Ki recorded for CC(C)[C@H](NC(=O)c1ccc2ccccc2c1)C(=O)N[C@@H](C)C(=O)N[C@H](CNCc1ccc(O)cc1)CC(=O)O
Result: 1370 nM

Request: Quick one: give measured Ki for CC(C)[C@H](NC(=O)c1ccc2ccccc2c1)C(=O)N[C@@H](C)C(=O)N[C@H](CNCc1ccccc1)CC(=O)O
Result: 600 nM

Request: Using known records, supply Ki for CC(C)[C@H](NC(=O)c1ccc2ccccc2c1)C(=O)N[C@@H](C)C(=O)N[C@H](CNCc1ccc2c(c1)OCO2)CC(=O)O
Result: 209 nM

Request: // fetch Ki given entry CC(C)[C@H](NC(=O)c1ccc2ccccc2c1)C(=O)N[C@@H](C)C(=O)N[C@@H](CC(=O)O)CN(C)Cc1ccccc1
Result: 1890 nM
